# Tested on: Zika virus NS2B-NS3 protease (unlinked complex)
# Assay Info: Primary screen GU Rhodamine qHTS for Zika virus inhibitors: Unlinked NS2B-NS3 protease assay (AID 1347159); further: nearly all actives have a fitted effect of over 60% in size
# Condition Summary: Recombinant ZIKV NS2B-NS3 protease, Rhodamine110 substrate fluorescence; series mostly up to 107 µM
Results filed as inconclusive are left out. The source made the active and inactive calls. The call rests on the fitted dose curve; in most records, active means well fitted inhibition curve with a large enough effect; inconclusive means small, poorly fitted or top-dose-only effect; inactive means no such curve, though single readings can be large or run the other way.
Possible outcomes: active, inactive

# Compound, Label Class
data = [
    ("Nc1nc(Nc2ccc(S(N)(=O)=O)cc2)nn1C(=O)c1c(F)cccc1F", "inactive"),
    ("CC1(C)CC(=O)c2c(C(F)(F)F)nn(-c3ccc(C(N)=O)c(NC4CCC(OC(=O)CN)CC4)c3)c2C1 (configuration not stated)", "inactive"),
    ("CCCCCCCCCC(=O)N[C@@H](Cc1c[nH]c2ccccc12)C(=O)N[C@H](CC(N)=O)C(=O)N[C@@H](CC(=O)O)C(=O)N[C@@H]1C(=O)NCC(=O)N[C@@H](CCCN)C(=O)N[C@@H](CC(=O)O)C(=O)N[C@H](C)C(=O)N[C@@H](CC(=O)O)C(=O)NCC(=O)N[C@H](CO)C(=O)N[C@@H]([C@@H](C)CC(=O)O)C(=O)N[C@@H](CC(=O)c2ccccc2N)C(=O)O[C@@H]1C", "inactive"),
    ("Clc1cccc(-n2nnnc2NCc2ccccc2Oc2ccccn2)c1Cl", "inactive"),
    ("Nc1cccc(-c2cc3c(Oc4cccc(O)c4)ncnc3[nH]2)c1", "inactive"),
    ("OCCCNc1cc(-c2ccnc(Nc3cccc(Cl)c3)n2)ccn1", "inactive"),
    ("CCS(=O)(=O)c1cccc(-c2cc(C(=O)NC3CCN(C)CC3)c(C)c3[nH]c4ncc(C)cc4c23)c1", "inactive"),
    ("CNC(=O)c1nn(C)c2c1C(C)(C)Cc1cnc(Nc3ccc(N4CCN(C)CC4)cc3)nc1-2", "inactive"),
    ("Cc1cnc(Nc2ccc(F)cc2Cl)nc1-c1c[nH]c(C(=O)N[C@H](CO)c2cccc(Cl)c2)c1", "active"),
    ("Cn1cc(-c2ccncc2)c(-c2ccc(OCc3ccc4ccccc4n3)cc2)n1", "inactive"),
    ("CN1CCC(CNc2ccc3ncc(-c4cccc(OC(F)(F)F)c4)n3n2)CC1", "inactive"),
    ("CS(=O)(=O)c1ccc(-c2cnc(N)c(C(=O)Nc3ccccc3)n2)cc1", "inactive"),
    ("Cc1ccc(CN2CCNCC2)cc1NC(=O)CNc1ccc(F)c(F)c1", "inactive"),
    ("Clc1cccc(-c2nnnn2Cc2cccnc2)c1Cl", "inactive"),
    ("COc1cc(C(=O)N2CCC(N3CCN(C)CC3)CC2)ccc1Nc1ncc2c(n1)N(C)c1ccccc1C(=O)N2C", "inactive"),
    ("CCCCOc1c(C(=O)c2c(F)cc(C)cc2F)cnc2n[nH]cc12", "inactive"),
    ("CC1(O)CC(c2nc(-c3ccc4ccc(-c5ccccc5)nc4c3)c3c(N)nccn23)C1 (configuration not stated)", "inactive"),
]

---

# Assay Info: Quantitative High-Throughput drug screen in 47 multiple myeloma cell lines against the NCATS MIPE library collection: Karpas417_ECACC cell viability assay (AID 1918961)
# Condition Summary: Karpas417 myeloma viability, CellTiter-Glo ATP luminescence, 48 h
Inconclusive results are not listed. The source made the active and inactive calls. Calls come from the whole dose curve; as a rule, active = well fitted cell-killing curve with a large enough effect; inconclusive = small, poorly fitted or top-dose-only effect, or effect the other way; inactive = no such curve, though single readings can be large or run the other way.
Possible outcomes: label 1 (active), label 0 (inactive)

# Compound, Label Class
rows = [
    ("CC[C@@H]1C(=O)N(C)c2cnc(Nc3ccc(C(=O)NC4CCN(C)CC4)cc3OC)nc2N1C1CCCC1", "label 1"),
    ("CC(C)(O)c1cc2nc(-c3cnc(N)nc3)nc(N3CCOCC3)c2s1", "label 1"),
    ("O=C(Nc1cc(C(F)(F)F)cc(C(F)(F)F)c1)c1cc(Cl)ccc1O", "label 1"),
    ("Cc1ccc(C(=O)Nc2ccc(CN3CCN(C)CC3)c(C(F)(F)F)c2)cc1C#Cc1cnc2cccnn12", "label 1"),
    ("CCc1c2c(nc3ccc(O)cc13)-c1cc3c(c(=O)n1C2)COC(=O)[C@]3(O)CC", "label 1"),
    ("COc1cc(=C2C=c3ccccc3=N2)[nH]c1=Cc1[nH]c(C)cc1C", "label 1"),
    ("Cn1c2cc(S(C)=O)sc2c2cnn(Cc3cccc(N)c3)c(=O)c21 (stereo not given)", "label 0"),
    ("O=C(C=Cc1cccnc1)NCCCCC1CCN(C(=O)c2ccccc2)CC1", "label 1"),
    ("NC(=O)Nc1cc(-c2cccc(F)c2)sc1C(=O)N[C@H]1CCCNC1", "label 1"),
    ("Cn1c2ccccc2c2c3c(c4c5ccccc5n(CCC#N)c4c21)CNC3=O", "label 1"),
]

---

# System: KB-3-1
# Assay Info: Cytotoxic Profiling of Annotated Libraries Using Quantitative High-Throughput Screening (AID 1296008); further: nearly all actives have a fitted effect of over 60% in size
# Condition Summary: Five cell lines viability, CellTiter-Glo ATP luminescence, 48-72 h
Inconclusive results are not listed. The source made the active and inactive calls. The call rests on the fitted dose curve; in most records, active means well fitted inhibition curve with a large enough effect; inconclusive means small, poorly fitted or top-dose-only effect; inactive means flat fitted curve, though single readings scatter.
Possible outcomes: T (active), F (inactive)

# Compound, Label Class
rows = [
    ("CS(=O)(=O)c1ccc(-c2cnc(N)c(C(=O)Nc3ccccc3)n2)cc1", "F"),
    ("C[C@@H](Oc1cc(-c2cnn(C3CCNCC3)c2)cnc1N)c1c(Cl)ccc(F)c1Cl", "T"),
    ("CCOc1ccccc1OCCNC(C)Cc1ccc(OC)c(S(N)(=O)=O)c1 (stereo not given)", "F"),
    ("CC(=O)Nc1sc2c(c1-c1nc3ccccc3s1)CNC2", "T"),
    ("CC(C)[C@H](C(=O)Nc1ccc(C(=O)NO)cc1)c1ccccc1", "T"),
    ("O=C(C=Cc1cccnc1)NCCCCC1CCN(C(=O)c2ccccc2)CC1", "T"),
    ("CC(=O)OCCN1C(=O)c2c(C)nc3ccc(S(=O)(=O)N4CCOCC4)cc3c2C1=O", "F"),
    ("c1nc2nc(Nc3ccc(N4CCOCC4)cc3)nc(NC3CCCCC3)c2[nH]1", "T"),
    ("O=C(Nc1nc2cccc(-c3ccc(CN4CCS(=O)(=O)CC4)cc3)n2n1)C1CC1", "T"),
    ("O=C(CCCCCCC(=O)Nc1ccc([C@H]2O[C@@H](CSc3nc(-c4ccccc4)c(-c4ccccc4)o3)C[C@@H](c3ccc(CO)cc3)O2)cc1)NO", "T"),
]

---

# Assay Info: qHTS of pediatric cancer cell lines to identify multiple opportunities for drug repurposing: Primary screen for DAOY cells (AID 1347090); further: nearly all actives have a fitted effect of over 55% in size
# Condition Summary: DAOY medulloblastoma viability, CellTiter-Glo luminescence, 48 h; series mostly up to 46 µM
Results filed as inconclusive are left out. The source made the active and inactive calls. Calls follow the shape of the dose curve; as a rule, active = well fitted cell-killing curve with a large enough effect; inconclusive = small, poorly fitted or top-dose-only effect; inactive = flat fitted curve, though single readings scatter.
Possible outcomes: active, inactive

# Molecule, Label Class
data = [
    ("Nc1ccc(S(=O)(=O)Nc2ncccn2)cc1", "inactive"),
    ("C=CC(=O)N1CCC[C@@H](n2nc(-c3ccc(Oc4ccccc4)cc3)c3c(N)ncnc32)C1", "active"),
    ("CN[C@H]1CCc2cc(OC)c(OC)c(OC)c2-c2ccc(OC)c(=O)cc21", "active"),
    ("C[C@@H]1COC(Nc2ccc3ncnc(Nc4ccc(OCc5nccs5)c(Cl)c4)c3c2)=N1", "active"),
    ("Cc1cn2cc(C(=O)N(C)CCO)cc(N[C@@H]3CCOc4cccc(C)c43)c2n1", "inactive"),
    ("O=C(O)CO.[NH2-].[NH2-].[Pt+2]", "inactive"),
    ("COCCn1c2c([n+](Cc3cnccn3)c1C)C(=O)c1ccccc1C2=O", "active"),
    ("CCn1cc(-c2ccnc3[nH]c(-c4cccc(CN(C)C)c4)cc23)c(-c2ccc(NC(=O)N(C)C)cc2)n1", "active"),
    ("Cc1ccc(C(=O)Nc2cccc(C(F)(F)F)c2)cc1-c1ccc2nc(NCCN3CCOCC3)ncc2c1", "active"),
    ("CNC(=O)c1ccc(N2C(=S)N(c3cnc(C#N)c(C(F)(F)F)c3)C(=O)C23CCC3)cc1F", "active"),
    ("O=C(NCCCNc1nc(Nc2cccc(NC(=O)N3CCCC3)c2)ncc1I)c1cccs1", "active"),
    ("CNC(=O)c1cc(Oc2ccc(NC(=O)Nc3cc(C(C)(C)C)nn3-c3ccc4ncccc4c3)c(F)c2)ccn1", "active"),
    ("C=CC(=O)Nc1cccc(Oc2nc(Nc3ccc(N4CCN(C)CC4)cc3)ncc2Cl)c1", "active"),
    ("CCc1cc2c(cc1N1CCC(N3CCOCC3)CC1)C(C)(C)c1[nH]c3cc(C#N)ccc3c1C2=O", "inactive"),
    ("CN(C)Cc1c(C(=O)NCCOc2ccc(C(=O)NO)cc2)oc2ccccc12", "active"),
    ("CN(C)CCCN=c1c2ccccc2n(C)c2[nH]c(=O)n(C)c(=O)c12", "active"),
    ("CCC[C@H](NC(=O)C(C#N)=Cc1cccc(Br)n1)c1ccccc1", "active"),
    ("Cc1ccc(S(=O)(=O)Nc2cc(Cl)ccc2C(=O)Nc2nc(-c3ccccc3)cs2)cc1", "active"),
    ("COc1cc(C)c(Sc2cnc(NC(=O)c3ccc(CNC(C)C(C)C)cc3)s2)cc1C(=O)N1CCN(C(C)=O)CC1 (centres undefined)", "active"),
]
